- Target Or Test System: human CD33 V234A (human, UniProt P20138 18-364)
- Sequence (P20138 18-364 V234A limits assumed): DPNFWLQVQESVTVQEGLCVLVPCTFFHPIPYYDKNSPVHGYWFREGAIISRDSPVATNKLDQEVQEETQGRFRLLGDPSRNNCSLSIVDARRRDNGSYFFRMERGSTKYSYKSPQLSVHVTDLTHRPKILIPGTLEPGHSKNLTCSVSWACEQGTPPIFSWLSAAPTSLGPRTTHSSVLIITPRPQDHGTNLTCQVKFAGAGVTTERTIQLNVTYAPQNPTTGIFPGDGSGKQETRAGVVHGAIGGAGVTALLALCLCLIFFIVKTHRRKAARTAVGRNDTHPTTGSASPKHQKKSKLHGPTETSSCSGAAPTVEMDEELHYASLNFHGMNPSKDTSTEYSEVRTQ
- Test Details: alanine scan, flow cytometry, HEK293-T;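 note: antibody binding to each alanine-substituted CD33 mutant expressed transiently in HEK293-T, read as fluorescence minus background, mean of duplicates, relative to wild-type CD33 set as 100%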
Observable: Mean % WT Binding
Reply with the number, then its unit.

Example entries and their recorded answers appear below.
Refmab #1 (antibody, V domains shown, In the alanine scan antibodies were used as IgG or Fab; also called hP67.6) VH: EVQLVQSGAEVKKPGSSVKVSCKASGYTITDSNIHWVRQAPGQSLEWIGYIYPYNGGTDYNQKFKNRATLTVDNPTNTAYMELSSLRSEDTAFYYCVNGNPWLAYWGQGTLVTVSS VL: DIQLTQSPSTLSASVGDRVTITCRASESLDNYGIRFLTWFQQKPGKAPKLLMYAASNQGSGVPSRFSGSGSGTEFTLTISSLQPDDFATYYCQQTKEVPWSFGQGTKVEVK; 85.8%
Refmab #2 (antibody, V domains shown, In the alanine scan antibodies were used as IgG or Fab) VH: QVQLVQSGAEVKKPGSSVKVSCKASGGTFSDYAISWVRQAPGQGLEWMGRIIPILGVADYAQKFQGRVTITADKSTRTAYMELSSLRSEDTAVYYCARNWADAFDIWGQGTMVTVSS VL: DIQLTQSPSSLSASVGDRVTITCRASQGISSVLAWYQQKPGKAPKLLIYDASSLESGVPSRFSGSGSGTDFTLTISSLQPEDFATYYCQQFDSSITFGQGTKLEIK; 117%
Refmab #4 (antibody, V domains shown, In the alanine scan antibodies were used as IgG or Fab) VH: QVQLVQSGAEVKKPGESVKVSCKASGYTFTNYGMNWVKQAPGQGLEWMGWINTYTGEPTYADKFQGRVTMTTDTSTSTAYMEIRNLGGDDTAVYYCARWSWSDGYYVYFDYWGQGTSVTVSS VL: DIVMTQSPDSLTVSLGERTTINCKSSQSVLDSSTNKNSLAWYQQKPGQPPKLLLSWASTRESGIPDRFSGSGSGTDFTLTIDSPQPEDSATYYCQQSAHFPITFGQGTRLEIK; 107%

Entry under test: Refmab #3 (antibody, V domains shown, In the alanine scan antibodies were used as IgG or Fab) VH: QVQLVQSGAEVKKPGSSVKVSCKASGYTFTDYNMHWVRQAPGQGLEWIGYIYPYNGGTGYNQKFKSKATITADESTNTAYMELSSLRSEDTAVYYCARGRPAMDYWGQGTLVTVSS VL: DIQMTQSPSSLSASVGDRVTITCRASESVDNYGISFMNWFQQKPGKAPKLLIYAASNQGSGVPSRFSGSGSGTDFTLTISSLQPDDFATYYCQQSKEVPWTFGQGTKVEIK . Its Mean % WT Binding was 88.7%
